Listing: Mean 2 of selected sequences
# Test system: HLA A2
# Type: binding, human
# condition.details: 100 μM peptide; RMA-S/A2 cells, peptide, anti-A2 Mab BB7.2 and secondary antibody; FACS mean
parameter.measured: Mean 2

biosequence="LIQETLLFV [CH24]" target_system="HLA A2" observed=394
biosequence="VQLAYVFDV (listed as Chlamydia pneumoniae) [CH16]" target_system="HLA A2" observed=433
biosequence="SLCAQSSYV (listed as Chlamydia pneumoniae) [CH50]" target_system="HLA A2" observed=381
biosequence="LLLTLGYAV (listed as Chlamydia pneumoniae) [CH19]" target_system="HLA A2" observed=436
biosequence="TLWGSFVDV (listed as Chlamydia pneumoniae) [CH21]" target_system="HLA A2" observed=440
biosequence="YVFDRILKV [CH13]" target_system="HLA A2" observed=582
biosequence="ILQEAEQMV [CH17]" target_system="HLA A2" observed=571
biosequence="KVLLGQEWV [CH42]" target_system="HLA A2" observed=336
biosequence="WLLRDDWLL [CH31]" target_system="HLA A2" observed=408
biosequence="NLSISVFLL [CH46]" target_system="HLA A2" observed=303
biosequence="FLFQLGMQI [CH62]" target_system="HLA A2" observed=305
biosequence="KLLAFPAFA [CH40]" target_system="HLA A2" observed=555
biosequence="QLLDEGKEL [CH1]" target_system="HLA A2" observed=489
biosequence="SLLEEHPVV (listed as Chlamydia pneumoniae) [CH52]" target_system="HLA A2" observed=396
biosequence="KLSEQLEAL [CH41]" target_system="HLA A2" observed=423
biosequence="VMLIFEKKV [CH14]" target_system="HLA A2" observed=455
biosequence="NLLKRWQFV [CH38]" target_system="HLA A2" observed=397
